molecular target: BTK enzyme (recombinant full-length BTK, hBTK) (Homo sapiens, UniProt Q06187); construct: recombinant protein from baculovirus-transfected Sf9 cells: full-length BTK, 6HIS-tag cleaved; 6HIS (cleaved yes); made in house; host or cells: baculovirus-transfected Sf9 cells; assay: BTK enzyme activity assay, LANCE TR-FRET; assay type: biochemical; details: 50 pM hBTK, 2 μM biotin-A5-peptide, 25 μM ATP; 60 min compound & enzyme incubation; read-out: IC50 BTK activity value
Sequence (Q06187 whole entry): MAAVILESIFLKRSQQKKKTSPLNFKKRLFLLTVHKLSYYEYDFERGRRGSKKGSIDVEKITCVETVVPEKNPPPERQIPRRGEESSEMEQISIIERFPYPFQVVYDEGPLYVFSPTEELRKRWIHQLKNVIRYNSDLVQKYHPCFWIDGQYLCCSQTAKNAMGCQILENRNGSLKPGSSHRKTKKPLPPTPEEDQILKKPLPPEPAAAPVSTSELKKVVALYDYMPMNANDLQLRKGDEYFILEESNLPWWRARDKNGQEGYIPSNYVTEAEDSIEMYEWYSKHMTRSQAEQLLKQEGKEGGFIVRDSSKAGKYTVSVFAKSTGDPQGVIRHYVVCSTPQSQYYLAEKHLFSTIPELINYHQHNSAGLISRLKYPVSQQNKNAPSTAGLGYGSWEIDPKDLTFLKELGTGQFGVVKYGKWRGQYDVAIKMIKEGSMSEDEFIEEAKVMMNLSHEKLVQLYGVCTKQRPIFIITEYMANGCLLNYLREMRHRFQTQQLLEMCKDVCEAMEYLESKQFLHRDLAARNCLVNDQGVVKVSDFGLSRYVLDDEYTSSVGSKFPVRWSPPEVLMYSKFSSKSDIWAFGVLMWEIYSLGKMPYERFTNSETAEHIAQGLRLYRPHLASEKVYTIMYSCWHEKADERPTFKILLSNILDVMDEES
Experimental readout: IC50 (nM)
Field: numeric (nM). Do not append units.

Q. Bench note: what IC50 did "Cc1cc(-c2nc([C@@H]3CC[C@H]4CCC(=O)N4C3)n3ccnc(N)c23)ccc1C(=O)Nc1cc(C2CC2)ccn1" show?
A. 0.64

Q. // query IC50 value for entry "CCNC(=O)Nc1nccn2c([C@@H]3CC[C@H]4CCC(=O)N4C3)nc(-c3ccc(C(=O)Nc4cc(C(F)(F)F)ccn4)cc3)c12"
A. 17.7

Q. May I ask what IC50 has been recorded for "COc1cc(C(=O)Nc2cc(C(F)(F)F)n(C)n2)ccc1-c1nc([C@@H]2CC[C@H]3CCC(=O)N3C2)n2ccnc(N)c12" ?
A. 2.7

###

Please go through the items and note down their IC50.
molecular target: BTK enzyme (recombinant full-length BTK, hBTK) (Homo sapiens, UniProt Q06187); construct: recombinant protein from baculovirus-transfected Sf9 cells: full-length BTK, 6HIS-tag cleaved; 6HIS (cleaved yes); made in house; host or cells: baculovirus-transfected Sf9 cells; test: BTK enzyme activity assay, LANCE TR-FRET; assay type: biochemical; details: 50 pM hBTK, 2 μM biotin-A5-peptide, 25 μM ATP; 60 min compound & enzyme incubation; read-out: IC50 BTK activity value
Numeric answer only, unit nM assumed.

Q. Field request: IC50 | item: "Nc1nccn2c([C@@H]3CC[C@H]4CCC(=O)N4C3)nc(-c3ccc(C(=O)Nc4cc(C(F)(F)F)ccn4)cc3F)c12"
A. 0.11

Q. Please give the measured IC50 for this compound: "Nc1nccn2c([C@@H]3CC[C@H]4CCOC(=O)N4C3)nc(-c3ccc(C(=O)Nc4cc(C(F)(F)F)ccn4)cc3)c12"
A. 0.075

Q. Query: IC50; subject: "Nc1nccn2c([C@@H]3CC[C@H]4CN(C(=O)c5ccncc5)CC(=O)N4C3)nc(-c3ccc(C(=O)Nc4cc(C(F)(F)F)ccn4)cc3)c12"
A. 0.21

###

target: BTK enzyme (recombinant full-length BTK, hBTK) (Homo sapiens, UniProt Q06187); construct: recombinant protein from baculovirus-transfected Sf9 cells: full-length BTK, 6HIS-tag cleaved; 6HIS (cleaved yes); made in house; host or cells: baculovirus-transfected Sf9 cells; assay: BTK enzyme activity assay, LANCE TR-FRET; format: biochemical; conditions: 50 pM hBTK, 2 μM biotin-A5-peptide, 25 μM ATP; 60 min compound & enzyme incubation; read-out: IC50 BTK activity value
I'd appreciate it if you could supply pIC50 values for the items below.
pIC50 is a log-scale quantity: -log10 of the concentration expressed in molar.

Q. Fill in the blank: the reported pIC50 of "CCOc1cc(C(=O)Nc2cc(C3CC3)ccn2)c(F)cc1-c1nc([C@@H]2CC[C@H]3CCC(=O)N3C2)n2ccnc(N)c12" is ____.
A. 8.70

Q. Field request: pIC50 | item: "COc1cc(C(=O)Nc2cc(C(F)(F)F)ccn2)cc(F)c1-c1nc([C@@H]2CC[C@H]3CCC(=O)N3C2)n2c(Cl)cnc(N)c12"
A. 9.77

Q. If you can, please state the reported pIC50 value of "COc1cc(C(=O)Nc2cc(C(F)(F)F)ccn2)ccc1-c1nc([C@H]2CN3C(=O)CC[C@@H]3CO2)n2ccnc(N)c12" .
A. 9.28

Q. pIC50 for "Cc1cc(C(=O)Nc2cc(C(F)(F)F)ccn2)c(F)cc1-c1nc([C@@H]2CC[C@H]3CCC(=O)N3C2)n2ccnc(N)c12" ?
A. 8.09

Q. Consider the compound shown here: "COc1cc(C(=O)Nc2cc(C(F)(F)F)ccn2)ccc1-c1nc([C@@H]2CC[C@H]3CCC(=O)N3C2)n2c(C(F)(F)F)cnc(N)c12" What is its recorded pIC50?
A. 8.57

Q. Reported pIC50, compound "Nc1nccn2c([C@@H]3CC[C@H]4C[C@@H](O)C(=O)N4C3)nc(-c3ccc(C(=O)Nc4cc(C(F)(F)F)ccn4)cc3)c12" : ____
A. 9.89
